assay notes: NCI Yeast Anticancer Drug Screen. Data for the rad50 strain (AID 155);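 further: 0% = growth of vehicle-only cultures of the same strain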
cond: S. cerevisiae rad50 strain growth inhibition; at 50.0 µM; stronger effect = higher value
About 79,000 compounds went through this panel and 15% of them were active in at least one assay; those are over-represented in the sample as a whole.
property label: growth inhibition (%)
Numbers only here, please. The scale is %.

These recorded examples may help you get a feel for the data.
# molecule, result units, reported measurement
records = [
    ("COc1cccc(CCNC(=O)Cc2ccccc2CCO)c1", "%", -5.8),
    ("O=S1(=O)CS/C(=N/C(=S)N(Cc2ccccc2)Cc2ccccc2)N1c1ccccc1", "%", 43),
    ("CCCCOP(=O)(OCCCC)/C(C#N)=C/c1ccc(C)o1", "%", -21.2),
    ("CNC1=C(Sc2ccc(C)cc2)C(=O)c2ccccc2C1=O", "%", -4.9),
]

Query: Could you share which growth inhibition value was measured for `O=C(OC(c1ccccc1)c1ccccc1)c1ccccc1C(=O)c1ccccc1` ?
Reply: -18.6

Query: Could you share which growth inhibition value was measured for `O=CNC(NC=O)c1ccccc1[N+](=O)[O-]` ?
Reply: 29.9

Query: Could you share which growth inhibition value was measured for `CN(C)/C(N)=N/S(=O)(=O)c1ccc(C#N)cc1` ?
Reply: 5

Query: Could you share which growth inhibition value was measured for `C[Si](C)(C)c1ccc(C(N)=O)cc1` ?
Reply: 14.4

Query: Could you share which growth inhibition value was measured for `BrC/C(=N\N1CCCCC1)c1ccc(Br)cc1` ?
Reply: 6.55

Query: Could you share which growth inhibition value was measured for `CCCC(=O)N(CC)CC` ?
Reply: 11.2

Query: Could you share which growth inhibition value was measured for `O=c1cc(-c2ccc(Cl)cc2)oc2cc(OCCCOc3ccc4c(=O)cc(-c5ccc(Cl)cc5)oc4c3)ccc12` ?
Reply: 40.9

Query: Could you share which growth inhibition value was measured for `CCOC(=O)c1cc(-n2nnc3ccccc32)cn1C` ?
Reply: -4.7

Query: Could you share which growth inhibition value was measured for `CCc1sc(N)nc1-c1ccccc1` ?
Reply: -3.15

====

assay notes: NCI Yeast Anticancer Drug Screen. Data for the sgs1 mgt1 strain (AID 161);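 further: 0% = growth of cultures given vehicle only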
cond: S. cerevisiae sgs1 mgt1 strain, at 50.0 µM, stronger effect = higher value
About 79,000 compounds went through this panel and 15% of them were active in at least one assay; those are over-represented in the sample as a whole.
property label: growth inhibition (%)
Numbers only here, please. The scale is %.

# molecule, growth inhibition, %
records = [
    ("S=C(NCN1CCOCC1)NCN1CCOCC1", -5.2),
    ("CC(=O)c1nc(C#N)c(N)o1", -17.7),
    ("COc1cc(C(O)CCBr)c(OC)cc1C (stereo not drawn)", -20.2),
    ("O=Cc1cccc2c([N+](=O)[O-])cccc12", 32.6),
    ("O=C1CC(c2ccccc2)OC(c2ccccc2Cl)C1 (stereo not drawn)", -39.5),
    ("O=C(Nc1ccccc1)c1ccc(I)cc1", 8.3),
    ("CCCCCCCC[C@]1(O)C[C@H]2[C@@H]3CCc4cc(OC)ccc4[C@H]3CC[C@]2(C)[C@H]1O", -1.15),
    ("c1ccc(CNCCCNCCCCNCCCNCc2ccccc2)cc1", 9.4),
]

Query: Could you share which growth inhibition value was measured for `CN(C(=O)CCC(=O)O)c1ccccc1C(=O)O` ?
Reply: 11

Query: Could you share which growth inhibition value was measured for `O=[N+]([O-])c1ccc(-c2ccncc2)cc1` ?
Reply: -19.4

Query: Could you share which growth inhibition value was measured for `Br/C=C/c1ccccc1` ?
Reply: 0.6

Query: Could you share which growth inhibition value was measured for `COc1cc2ccc3c4cc(OC)c(OCc5ccccc5)cc4cnc3c2cc1OC` ?
Reply: 4.9

Query: Could you share which growth inhibition value was measured for `Nc1ncncc1Oc1ccccc1` ?
Reply: -0.2
